Test system: Colon cancer organoid
Assay: Targeting of F14 CAF-induced therapy resistance in O23 CRC organoid-stroma co-culture. Cell viability is reported without Gefitinib.
Assay type: functional, Homo sapiens
Conditions: Homo sapiens, Concentration 10 uM; read-out: Cell Viability
Each entry below lists one item and its recorded viability at 10 µM value.
metric: viability at 10 µM (%)

> print(dat)
                                   compound              metric  val
1        Nc1nc(NCc2ccccc2)nc(-c2ccccc2CO)n1  viability at 10 µM  222
2  CN1CCN(c2ccnc(NCCc3ccccc3)n2)CC1 [TP-040n]  viability at 10 µM  177
3  Cc1c(Nc2ccc(S(=O)(=O)N3CCN(C)CC3)cc2F)nc2ccc(-c3cnn(C4CC4)c3)cn2c1=O  viability at 10 µM  153
4  O=C(N[C@H]1CCCCC/C=C\C2C[C@@]2(C(=O)O)NC(=O)[C@@H]2C[C@@H](Oc3ccncc3)CN2C1=O)OC1CCCC1 (stereo partly drawn)  viability at 10 µM  136
5  O=C(N1CCS(=O)(=O)CC1)N1C[C@H](c2ccc(OC(F)(F)F)cc2)C[C@H](c2nc(C3CC3)no2)C1  viability at 10 µM  120
6  Cc1nnc2c3ccccc3c(N[C@@H](C)[C@H](c3ccccc3)N(C)C)nn12  viability at 10 µM  119
7  Cc1cnc(-c2cc(Cl)ccc2F)cc1-n1c(=O)n(CC(N)=O)c2ccccc21  viability at 10 µM  120
8  C[C@H](NC(=O)c1cnc2n1[C@](C)(Cc1ccc(C#N)cc1)C(=O)N2c1cc(Cl)c(F)c(Cl)c1)C(=O)NC1(c2ccccn2)CC1  viability at 10 µM  104

====

Test system: Colon cancer organoid
Test: Targeting of F14 CAF-induced therapy resistance in O23 CRC organoid-stroma co-culture. Cell viability is reported with Gefitinib.
Assay type: functional, Homo sapiens
Conditions: Homo sapiens, Concentration 10 uM; read-out: Cell Viability
Reported viability at 10 µM values follow for various compounds
metric: viability at 10 µM (%)

> print(dat)
                                item.smiles   val
1  Nc1ncnc2c1ccn2[C@@H]1O[C@H]([C@H](O)c2ccccc2)[C@@H](O)[C@H]1O    45
2  C[C@@H](NC(=O)Nc1cc2[nH]ncc2c(CO)n1)c1ccccc1   4.5
3  CCN(CC)S(=O)(=O)Nc1cccc(-c2ccc3c(NC(=O)C4CC4)n[nH]c3c2)c1  65.5
4  O=C(Nc1cnc(Oc2ccc(F)cc2)nc1)N1CCc2ncccc2[C@@H]1c1ccc(F)cc1  63.6
5  CN1CCN(c2ccc(-c3cccc(CN4CCOCC4)c3)cc2NC(=O)c2c[nH]c(=O)cc2C(F)(F)F)CC1  62.5
6  C[C@H](c1ccc(F)cc1)N(Cc1cccc(C(=O)O)c1)C(=O)c1cnc2ccccc2c1  45.6
7  CN1CCN(c2cnc3c(C4CCN(C(=O)c5ccc(OC(F)(F)F)cc5N)CC4)ncnc3c2)CC1  59.7
8  CNC(=O)c1cc(C(=O)NC2CC2)cn(Cc2ccccc2)c1=O  60.9

====

Tested on: Colon cancer organoid
Assay: Targeting of F14 CAF-induced therapy resistance in O14 CRC organoid-stroma co-culture. Cell viability is reported without Gefitinib.
Type: functional, Homo sapiens
Details: Homo sapiens, Concentration 10 uM; read-out: Cell Viability
metric: viability at 10 µM (%)

> print(dat)
                                   compound          target.system  unit.string   val
1  CC(=O)Nc1c(C(C)=O)c(=O)n(C)c2nc(-c3ccc(Cl)cc3Cl)c(-c3ccc(Cl)cc3)cc12 [NAPHTHYRIDINONE]  Colon cancer organoid            %   119
2  Cn1c(=O)[nH]c2cc(N3C(=O)c4cccc5c(CCCO)ccc(c45)C3=O)ccc21  Colon cancer organoid            %  92.6
3  Cc1cn(-c2cc(NC(=O)c3ccc4c(c3)CN(c3cncnc3)C[C@@H]4C)cc(C(F)(F)F)c2)cn1  Colon cancer organoid            %   149
4  CCN(CC)S(=O)(=O)Nc1cccc(-c2ccc3c(NC(=O)C4CC4)n[nH]c3c2)c1  Colon cancer organoid            %   144
5  CCC(=O)N[C@H]1CC[C@@H](C(=O)N(C)c2ccc(-c3nc4ccccc4o3)cc2)C1 [BI 99179]  Colon cancer organoid            %  48.5
6  CCCOc1ccn2c(C(C)=O)cc(-c3ccccc3S(C)(=O)=O)c2c1  Colon cancer organoid            %   111
7  Cn1cncc1[C@](O)(COc1ccc(C#N)cc1-c1ccc(OC(F)(F)F)cc1)c1ccc(C#N)cc1  Colon cancer organoid            %    47
8  CC(C)[C@H](C(=O)Nc1ccc(C(=O)NO)cc1)c1ccccc1 [AR-42]  Colon cancer organoid            %  34.5

====

Test system: Colon cancer organoid
Assay: Targeting of F14 CAF-induced therapy resistance in O14 CRC organoid-stroma co-culture. Cell viability is reported without Gefitinib.
Format: functional, Homo sapiens
Settings: Homo sapiens, Concentration 10 uM; read-out: Cell Viability
metric: viability at 10 µM

> print(dat)
                                   compound          target.system    val
1  COc1c(C)cc(NC(=O)c2nn(Cc3ccc(F)cc3)c3c2CN(C(=O)c2ccc[nH]2)C[C@]3(C)C(N)=O)cc1C  Colon cancer organoid   121%
2  CC(=O)Nc1cccc(-n2c(=O)n(C3CC3)c(=O)c3c(Nc4ccc(I)cc4F)n(C)c(=O)c(C)c32)c1 [TRAMETINIB]  Colon cancer organoid   1.6%
3  C[C@@H]1CC(=O)Nc2cccc(-c3ccc4c(c3)c(-c3cnn(C)c3)nn4C)c2N1  Colon cancer organoid  43.6%
4  CCCCN(Cc1ccccc1)C(=O)c1ccc(S(=O)(=O)Nc2ccccc2)cc1  Colon cancer organoid  80.8%
5  O=C1c2ccc(Nc3ccc(F)cc3F)cc2CCc2ccc(OC[C@H](O)CO)cc21 [Skepinone-L]  Colon cancer organoid   153%
6  CCc1ccccc1C(=O)Nc1n[nH]c2c(C)c(F)c(C3C(C#N)=C(C)N(C)C(C)=C3C#N)cc12 [BAY-3827]  Colon cancer organoid   101%
7  COc1ccccc1C(=O)Nc1cc2c(cc1N1CCCC1)n(C)c(=O)n2C  Colon cancer organoid   114%
8  CCCCNc1ncc(-c2ccc(CN3CCOCC3)cn2)c(N[C@H]2CC[C@H](O)CC2)n1  Colon cancer organoid  9.12%

====

Below, each of the molecules is paired with its reported viability at 10 µM value.
System: Colon cancer organoid
Experiment: Targeting of F14 CAF-induced therapy resistance in O23 CRC organoid-stroma co-culture. Cell viability is reported with SN-38.
Format: functional, Homo sapiens
Conditions: Homo sapiens, Concentration 10 uM; read-out: Cell Viability
metric: viability at 10 µM

> print(dat)
                                    molecule    val
 1  CC(=O)Nc1ncc(CN2CCC[C@H](Cc3cc(C)nc(C)c3)C2)s1  44.3%
 2     c1ccc(N2CCN(Cc3nc4ccccc4[nH]3)CC2)nc1   106%
 3  N#CC1(c2ccccn2)CCN(Cc2cc(C(=O)N3CCCC3)c(=O)n3ccccc23)CC1  63.2%
 4  CN1C[C@H](Nc2cnn(C)c(=O)c2Br)C[C@H](c2ccccc2)C1  66.4%
 5  CC(=O)C1=C(C)N(c2cccc(C(F)(F)F)c2)C(=O)N[C@@H]1c1ccc(C#N)nc1  75.6%
 6  CCCS(=O)(=O)c1nc(NC2CC2)cc(-c2ccc3c(ccn3C3CC(C)(C)NC(C)(C)C3)c2)n1  77.1%
 7  CC1=C(C)C(=O)C(C(C)(C)CC(=O)N(CCCCSC[C@H]2O[C@@H](n3cnc4c(N)ncnc43)[C@H](O)[C@@H]2O)Cc2cccc(-c3ccc(Cl)cc3)c2)=C(C)C1=O  69.9%
 8  O=C(O)c1ccc(-c2c[nH]c3ncc(-c4ccccc4)cc23)cc1C1CCCC1  82.6%
 9  CCOc1ccc(S(=O)(=O)Nc2ccc(Cl)cc2C#Cc2cnc(C(=O)O)cc2OC)c2ncccc12  77.6%
10  CC(C)(C)OC(=O)N1CCCC1CNC1CCC(c2cc(F)ccc2F)(S(=O)(=O)c2ccc(Cl)cc2)CC1 (centres undefined)  78.6%
11  CCCCNc1ncc(-c2ccc(CN3CCOCC3)cn2)c(N[C@H]2CC[C@H](O)CC2)n1  28.9%
12  CNC(=O)c1cc(C(=O)N[C@H]2[C@@H]3COC[C@@H]32)cc2c1O[C@H](CF)[C@H]2c1ccccc1  46.5%
13  COc1ccccc1C(=O)Nc1cc2c(cc1N1CCNCC1C)n(C)c(=O)n2C (centres undefined)  55.3%
14  COc1cc(C#N)ccc1S(=O)(=O)Nc1ccc2c(c1)cc(C)c(=O)n2C   127%
15  O=C(/C=C/N1C[C@H]2C[C@@H]1CN2c1ccccn1)c1ccccc1O  45.4%
16           CCC(=N\O)/C(C)=C/c1ccc(F)c(C)c1  93.1%
17  Cc1nc(C2CCN(C(=O)c3ccc(OC(F)(F)F)cc3N)CC2)c2ncc(N3CCN(C)CC3)cc2n1  53.6%
18  CO[C@@H](C)c1c(Nc2ccc([C@H](N(C)C(=O)C3CCS(=O)(=O)CC3)C(F)(F)F)cc2)cnc2cc(Cl)nn12  89.1%
19  Cn1cncc1[C@@](O)(COc1ccc(C#N)cc1-c1ccc(OC(F)(F)F)cc1)c1ccc(C#N)cc1   112%
20  C[C@H](c1ccc(F)cc1)N(Cc1cccc(C(=O)O)c1)C(=O)c1cnc2ccccc2c1  98.3%
21  O=C(CCCCCCNC(=O)c1cnc(N(c2ccccc2)c2ccccc2)nc1)NO  43.7%
22     CSc1cccnc1N1CCN(Cc2nc3ccccc3[nH]2)CC1   103%
23  COc1cc(Nc2nccc(-c3cnn4nc(OC)ccc34)n2)cc(C(F)(F)F)c1  23.6%
24  CCC(=O)N1CCOc2c(cc(-c3ccc(OC)c(OC)c3)cc2OCC2CCCN(C)C2)C1 (centres undefined)  96.1%
25     CC(=O)c1cc(-c2ccccc2OCC2CC2)c2ncccn12   102%
26  Cc1c(Oc2ccc(F)cc2)c(OC(C)C)nn1-c1ccc(C2CC2)cn1  75.2%
27  Cc1ccc(-c2cnc([C@@]3(O)CC[C@H](C(=O)O)C(C)(C)C3)s2)cc1Nc1cccc(C(F)(F)F)n1  73.3%
28  Cc1cccc(-c2cnc3occ(-c4ccc(C(=O)O)c(C5CCCC5)c4)c3c2)c1  66.7%
29  CC(=O)C1=C(C)N(c2cccc(C(F)(F)F)c2)C(=O)N[C@H]1c1ccc(C#N)nc1    75%
30  CCOC(=O)Nc1cc(-c2ccc(C)c(NS(C)(=O)=O)c2)nn2c(C)nnc12  79.5%
31  COCCN1CCC(c2cc(CN(C)C(=O)c3cccc(Oc4ccccc4)c3)ccn2)CC1    34%
32  CCOC(=O)CCNc1cc(N2CCc3ccccc3CC2)nc(-c2cccnc2)n1  79.9%
33  C[C@@H]1CN(c2cc(-c3nn(C)c4ccc(OC5(C)CC5)cc34)ncn2)C[C@H](C)O1  62.4%
34  Cn1nc(C(F)(F)F)cc1-c1cnc(N2CCc3cc(S(=O)(=O)Nc4c(F)cc(Cl)cc4F)cc(N4CCCC4=O)c32)nc1  92.4%
